Test system: BV2 (mouse microglia) cell line
Test: pHrodo-myelin phagocytosis/cell viability high content imaging assay: viability (cell count, nuclear area, nuclear intensity)
Settings: BV2 cells, 10 uM compound, 48 hours treatment
Quantity name: 2. Nuclear Area (% Control)
The response must be a number in % Control with no trailing unit.

Q) Which measured 2. Nuclear Area (% Control) value corresponds to Cl.NCCOCCOCCNC(=O)Cc1ccc(Nc2nc(NCc3ccc(F)cc3)nc(NCC3CCCCC3)n2)cc1 [UNC10302950A] ?
A) 117.0

Q) # get_value(readout='2. Nuclear Area (% Control)', item= C[C@@H](Oc1cc(-c2cnn(C3CCNCC3)c2)cnc1N)c1c(Cl)ccc(F)c1Cl [UNC10220526A] )
A) 109.8

Q) Entry under review: CN(C)c1ccc2c(c1)Sc1cc(N(C)C)ccc1N2.CS(=O)(=O)O.CS(=O)(=O)O [UNC10303097A, reference compound] . Reported 2. Nuclear Area (% Control)?
A) 111.0

Q) For the compound shown here, CN(C)CC[C@H](CSc1ccccc1)Nc1ccc(S(=O)(=O)NC(=O)c2ccc(N3CCN(Cc4ccccc4-c4ccc(Cl)cc4)CC3)cc2)cc1[N+](=O)[O-] [UNC10302898A] , give the reported 2. Nuclear Area (% Control).
A) 97.8

Q) Value lookup for 2. Nuclear Area (% Control); key = CC(C)CCC[C@@H](C)[C@H]1CC[C@H]2[C@@H]3CC[C@H]4C[C@H](N)CC[C@]4(C)[C@H]3CC[C@]12C [UNC10302970A]
A) 108.5

New cases:
Q) 2. Nuclear Area (% Control) for Cc1cccc(-c2nn3c(c2-c2ccnc4ccc(C(N)=O)cc24)CCC3)n1 [UNC10245080A] ?
A) 108.1

Q) Item under review: COc1cc(/C=C/c2ccc(NC(=O)/C=C/c3cc(OC)c(OC)c(OC)c3)cc2)cc(OC)c1 [UNC10302905A] . Reported 2. Nuclear Area (% Control)?
A) 95.8

----------
Assay: physchem
Details: pH 7.4, aqueous buffer, kinetic from dmso stock
Quantity name: solubility kinetic

Previously resolved entries follow.
Q) Which solubility kinetic value is on record for `CC(C)(C)c1cc(NC(=O)Nc2ccc(-c3cn4c(n3)sc3cc(OCCN5CCOCC5)ccc34)cc2)no1` ?
A) 0.9 µM

Q) Requested field: solubility kinetic. Item: `Cc1cc(Nc2nc(N[C@@H](C)c3ncc(F)cn3)ncc2Cl)n[nH]1`
A) 141 µM

Q) Item O=c1[nH]c2ccccc2n1C1CCN(CCCC(c2ccc(F)cc2)c2ccc(F)cc2)CC1 [Pimozide] has what recorded solubility kinetic?
A) 2.9 µM

Continuing:
Q) Which solubility kinetic reading was recorded for the molecule O=C(Nc1ccc([N+](=O)[O-])cc1Cl)c1cc(Cl)ccc1O [Niclosamide] ?
A) 17.5 µM

Q) Give its solubility kinetic value. Item: `O=S(=O)(c1ccc2c(c1)C(=NO)c1cc(S(=O)(=O)N3CCCCC3)ccc1-2)N1CCCCC1`
A) 1.2 µM

Q) Any idea what its solubility kinetic is? The molecule is `CNC(=O)CN1CCC(Oc2cc3c(Nc4cccc(Cl)c4F)ncnc3cc2OC)CC1`
A) 115 µM

----------
Test system: BV2 (mouse microglia) cell line
Assay: pHrodo-myelin phagocytosis/cell viability high content imaging assay: viability (cell count, nuclear area, nuclear intensity)
Conditions: BV2 cells, 10 uM compound, 48 hours treatment
Quantity name: 2. Nuclear Area (% Control)
Use % Control as the unit, but write only the number.

Q) Enter reported 2. Nuclear Area (% Control) observed with BV2 (mouse microglia) cell line for C[C@@H]1O[C@@H](O[C@H]2[C@H](Oc3cc(O)c4c(c3)O[C@H](c3ccc(O)cc3)CC4=O)O[C@H](CO)[C@@H](O)[C@@H]2O)[C@H](O)[C@H](O)[C@H]1O [UNC10242153A]
A) 104.9

Q) Quick check: 2. Nuclear Area (% Control) on BV2 (mouse microglia) cell line, item N#Cc1ccc(COC[C@H]2O[C@@H](n3c(NCc4ccc(Cl)c(Cl)c4)nc4c(N)ncnc43)[C@H](O)[C@@H]2O)cc1 [UNC10302853A] ?
A) 107.2

Q) Report 2. Nuclear Area (% Control) for O=S(=O)(c1ccc2c(c1)C(=NO)c1cc(S(=O)(=O)N3CCCCC3)ccc1-2)N1CCCCC1 [UNC10302976A] tested on BV2 (mouse microglia) cell line.
A) 116.9

Now consider the entry below.
Q) API: value(readout= 2. Nuclear Area (% Control), system= BV2 (mouse microglia) cell line, query= O=C(NNc1nc2cc(F)ccc2n2cccc12)c1cnccn1 [UNC10302850A] )
A) 129.5
